The entries below are paired with their reported log10 of solubility kinetic.
# study.conditions: buffer; pH 7.4; 200.0 µM
Scale: decimal log of solubility kinetic, solubility kinetic in µg/mL.

CC(=Nc1ccc(F)cc1)c1c(O)n(C)c(=O)[nH]c1=O: 0.85
O=[N+]([O-])c1ccccc1/C=C/CN1CCC(O)CC1: 1.47
CCOc1ccccc1C(=O)NCC(=O)OCCOc1cccc(Cl)c1: 1.53
O=C(CC(=O)c1ccccc1)Nc1ccccc1C(F)(F)F: 1.64
Cc1ccccc1CC(=O)N1CCCC1: 1.47

Please examine the following record next.
Looking up COc1cccc(CNC(=O)c2ccccc2-c2ccccc2)c1 , I found its log10 of solubility kinetic recorded as 0.32

----------
# study.conditions: buffer; pH 7.4; 200.0 µM
The entries below are paired with their reported solubility kinetic.
// units = µg/mL; emit number, no label

In the examples that follow, each entry is paired with its recorded solubility kinetic.
COCCn1c(SCC(=O)Nc2cccnc2Cl)nc2ccccc21: 7.4
CCC(=O)N/C(N)=N/c1nc(C)c2cc(C)c(C)cc2n1: 11.6
Cn1c(=O)c2c(nc(Sc3ccccc3N)n2C)n(C)c1=O: 39.1
C=CCn1c(COc2ccccc2)nc2ccccc21: 31.9

Looking up CCOc1cccc(OCCCCn2cnc3ccccc3c2=O)c1 , I found its solubility kinetic recorded as 3.4

----------
# study.conditions: buffer; pH 7.4; 200.0 µM
quantity.kind: solubility kinetic

In the examples that follow, each entry is paired with its recorded solubility kinetic.
COc1ccc(C(=O)OCC(=O)N2C(C)CCCC2C)cc1S(=O)(=O)N1CCOCC1 (stereo not given): > 68.2 µg/mL
O=C(c1cc(F)c(F)c(F)c1F)N1CCN(C(=O)C2CCCO2)CC1 (stereo not given): > 54 µg/mL
CN(c1cccc(NC(=O)c2cccc([N+](=O)[O-])c2)c1)S(C)(=O)=O: > 52.4 µg/mL
CCNC(=O)CC1C(=O)N(c2ccc(C)cc2)C(=O)N1CCC(C)C (stereo not given): > 51.8 µg/mL

Looking up CCOc1ccc(N2CC(C(=O)NC3=NCCS3)CC2=O)cc1 (stereo not given) , I found its solubility kinetic recorded as > 50 µg/mL

----------
# study.conditions: buffer; pH 7.4; 200.0 µM
Use 10 µg/mL as the dividing line for solubility kinetic, with the line itself on the TRUE side and lower values as FALSE.

Example entries and their recorded answers appear below.
CCN(Cc1ccccc1)C(=O)c1c(-c2ccccc2Cl)noc1C: TRUE
Cc1cc(C(C)(C)C)cc(C)c1COC(=O)CN1C(=O)NC2(CCCC2)C1=O: TRUE
COc1ccc(NC(=O)COc2cccnc2[N+](=O)[O-])cc1OC: TRUE
COc1cc(N)ccc1NC(=O)c1cc2ccccc2o1: TRUE
CC(C)C(=O)N1CCN(c2ccccc2NC(=S)NC(=O)/C=C/c2ccco2)CC1: FALSE
Cc1ccc(NC(=O)CCc2c(C)[nH]c(=O)c(C#N)c2C)cc1: TRUE
C=C(C)c1cccc(C(C)(C)NC(=O)NCc2ccncc2)c1: TRUE
COc1ccc2c(c1)CCC(C)N2C(=O)C(=O)c1c[nH]c2ccccc12 (centres undefined): FALSE
O=C(Nc1ccccc1F)c1cc(-c2ccco2)nc2ccccc12: FALSE
O=C(COC(=O)/C=C/c1ccccc1Cl)NCc1ccco1: TRUE

Is reported solubility kinetic greater than or equal to 10 µg/mL here: COc1ccc(N2CCN(c3cc(C)c4ccccc4n3)CC2)cc1
FALSE

Is reported solubility kinetic greater than or equal to 10 µg/mL here: O=c1onc(-c2cccnc2)n1-c1ccccc1F
TRUE

Is reported solubility kinetic greater than or equal to 10 µg/mL here: COc1ccc(C(C)=O)cc1COC(=O)c1cccnc1Cl
FALSE

Is reported solubility kinetic greater than or equal to 10 µg/mL here: CC(=O)Nc1ccc(NC(=O)CCCc2ccccc2)cc1
TRUE

Is reported solubility kinetic greater than or equal to 10 µg/mL here: Cc1c(C=O)c2ccccc2n1CC(=O)O
TRUE

Is reported solubility kinetic greater than or equal to 10 µg/mL here: Cc1ccc2c(CN3CC(C)CC(C)C3)cc(=O)oc2c1C (centres undefined)
FALSE

Is reported solubility kinetic greater than or equal to 10 µg/mL here: O=C(COC(=O)CNC(=O)c1ccc(Cl)c([N+](=O)[O-])c1)NC(=O)c1ccccc1
TRUE

Is reported solubility kinetic greater than or equal to 10 µg/mL here: COC(=O)CN1C(=O)N/C(=C/c2cc3c(cc2OC)OCO3)C1=O
FALSE

Is reported solubility kinetic greater than or equal to 10 µg/mL here: CCOC(=O)C(=O)c1c(-c2ccc(C)cc2)nc2ccccn12
TRUE

Is reported solubility kinetic greater than or equal to 10 µg/mL here: CC1(C)CC(NS(=O)(=O)c2ccc(F)cc2)CC(C)(C)N1
TRUE

Is reported solubility kinetic greater than or equal to 10 µg/mL here: Nc1cc(-c2ccncc2)c[nH]c1=O
TRUE

Is reported solubility kinetic greater than or equal to 10 µg/mL here: COCCCNC(=O)C(CC(N)=O)NC(=O)OCc1ccccc1 (centres undefined)
TRUE

Is reported solubility kinetic greater than or equal to 10 µg/mL here: CN(CC(=O)N1CCCC1)S(=O)(=O)c1ccc2ccccc2c1
TRUE

Is reported solubility kinetic greater than or equal to 10 µg/mL here: Cc1ccc(C(=O)Nc2ccc(Cl)cc2C)c(Cl)c1
FALSE

----------
# study.conditions: buffer; pH 7.4; 200.0 µM
The entries below are paired with their reported solubility kinetic.
// units = µg/mL; emit number, no label

COc1ccc(C=O)cc1CN1C(=O)c2ccccc2C1=O: 36.8

Looking up CN1CCCN(C(=O)COc2ccc(Br)cc2)CC1 , I found its solubility kinetic recorded as 44.7

Looking up COC(=O)C1=C(NC(=O)c2ccccc2[N+](=O)[O-])CCS1 , I found its solubility kinetic recorded as 8.4

----------
# study.conditions: buffer; pH 7.4; 200.0 µM
quantity.kind: solubility kinetic

In the examples that follow, each entry is paired with its recorded solubility kinetic.
CSc1ccccc1NC(=S)NC1CCCCC1: 30 µg/mL
CCc1noc(C)c1C(=O)Nc1ccc(F)c(F)c1F: > 42.6 µg/mL
CC(C)C(NC(=O)c1ccccc1F)C(=O)NCC(c1ccco1)N1CCCCC1 (stereo unspecified): > 62.3 µg/mL

Looking up O=C(Nc1cccc2cccnc12)c1cc(F)c(F)cc1Cl , I found its solubility kinetic recorded as < 0.3 µg/mL

Looking up Cn1c(=O)c2c(ncn2CC(=O)OCCCC(=O)c2ccc(Br)cc2)n(C)c1=O , I found its solubility kinetic recorded as 28 µg/mL

Looking up O=C(COC(=O)c1ccc(O)cc1)Nc1nccs1 , I found its solubility kinetic recorded as > 41.7 µg/mL

----------
# study.conditions: buffer; pH 7.4; 200.0 µM
quantity.kind: solubility kinetic (µg/mL)
// units = µg/mL; emit number, no label

Looking up CN(c1ccccc1)S(=O)(=O)c1ccc(NC(=O)C2CC2)cc1 , I found its solubility kinetic recorded as 2.3

Looking up O=C(COC(=O)/C=C/c1cccc(F)c1)Nc1ccc(Cl)cn1 , I found its solubility kinetic recorded as 5

Looking up O=C(CN1CCN(C(=O)c2ccc(OCc3cn4ccccc4n3)cc2)CC1)Nc1cccc(F)c1 , I found its solubility kinetic recorded as 8.6

Looking up COC(=O)c1ccc2nccnc2c1 , I found its solubility kinetic recorded as 22.7

Looking up O=C(CCCl)N1CCCC2(CCCCC2)C1 , I found its solubility kinetic recorded as 30.1

Looking up CC(C)[C@H](NC(=O)c1ccccc1F)C(=O)Nc1ccc(F)c(F)c1 , I found its solubility kinetic recorded as 4.9

----------
# study.conditions: buffer; pH 7.4; 200.0 µM
Entries are grouped by solubility kinetic into these classes: band 1 (below 3 µg/mL), band 2 (3 µg/mL to below 20 µg/mL), band 3 (20 µg/mL or more)

Example entries and their recorded answers appear below.
COc1ccc(CNc2cc(C)ccn2)c(O)c1: band 3
O=c1cc(C(F)(F)F)[nH]c(=S)n1-c1ccccc1: band 3
Cc1ccc(CNC(=O)CCSCc2cccc(F)c2)cc1: band 2
O=C(CNC(=O)C1CCCCC1)NCc1ccco1: band 3
CCCCC(=O)N/C(N)=N/c1nc2ccccc2o1: band 1

Please let me know in which category the item CC(=O)Oc1ccc(C2(C)CC(C)(C)NC(=S)N2C)c(OC(C)=O)c1 (stereo not given) belongs.
band 3

Please let me know in which category the item NC(=O)NC(=O)CSc1ccccc1 belongs.
band 3

----------
# study.conditions: buffer; pH 7.4; 200.0 µM
The entries below are paired with their reported solubility kinetic.

In the examples that follow, each entry is paired with its recorded solubility kinetic.
O=C(C1CCCCCC1)N1CC[C@@H](N2CCC(O)CC2)[C@H](O)C1: > 48.7 µg/mL
CCOC(=O)CN1C(=N)N(c2nc(NC(C)C)nc(OC)n2)CC1=O: > 52.7 µg/mL
COc1ccc(CCNC(=O)c2ccccc2)cc1: > 38.3 µg/mL

Looking up Clc1ccc(Cn2ccnc2)cn1 , I found its solubility kinetic recorded as 24.2 µg/mL

Looking up O=C(OCC(=O)c1ccc[nH]1)c1ccc(C(F)(F)F)cc1 , I found its solubility kinetic recorded as 6.2 µg/mL

Looking up O=C(CN1CCOCC1)Nc1scc2c1c(=O)oc1ccccc12 , I found its solubility kinetic recorded as < 0.4 µg/mL

Looking up C=CCNC(=O)C1CCN(c2cnccn2)CC1 , I found its solubility kinetic recorded as > 36.9 µg/mL

Looking up O=C(Nc1ccc(Cl)cc1)Nc1ccc2c(c1)OCO2 , I found its solubility kinetic recorded as 0.4 µg/mL

Looking up Cc1ccc(S(=O)(=O)NCC(=O)OCC(=O)Nc2ccc(C)c(S(=O)(=O)N3CCOCC3)c2)cc1 , I found its solubility kinetic recorded as > 78.8 µg/mL

Looking up O=C(CN1CCN(c2ccccc2)CC1)c1c[nH]c2ccccc12 , I found its solubility kinetic recorded as 4.4 µg/mL

Looking up CC1=CC(=C(C#N)C#N)C=C(C)N1CCC(C)C , I found its solubility kinetic recorded as 1.7 µg/mL

Looking up CCOC(=O)Cn1nc(C)cc1NC(=O)c1ccncc1 , I found its solubility kinetic recorded as > 43.2 µg/mL
